Give measured mortality at 500 ppm for each item. Keep answers brief.
system: Diabrotica balteata (rootworm larvae); experiment: Residual test, rootworm larvae (DB), Filter paper/maize seed; assay type: in vivo; conditions: 72 h, 500 ppm, 3 days, read-out: DB grading of mortality

Data request: Bench note: what mortality at 500 ppm did Fc1ccc(C=CC=C(c2ccc(OC(F)(F)F)cc2)C(F)(F)F)cc1Cc1ccccc1 show?
Data returned: 80 to 100%

Data request: Also Fc1cc(C(CCCc2cccc(Oc3ccccc3)c2)C(F)(F)F)cc(F)c1OC(F)(F)F (racemic) , if possible.
Data returned: 80 to 100%

Data request: Let us now turn to CCOc1ccc(C(=CC=Cc2ccc(F)c(Cc3ccccc3)c2)C(F)(F)F)cc1
Data returned: 80 to 100%

Data request: Let us now turn to CCOc1ccc(C(CCCc2cccc(Oc3ccccc3)c2)C(F)(F)F)cc1 (racemic)
Data returned: 80 to 100%

Data request: How about CC1Oc2ccc(C(CCCc3cccc(Oc4ccccc4)c3)C(F)(F)F)cc2O1 (centres unmarked) ?
Data returned: 80 to 100%

Data request: How about Fc1ccc(C=CC=C(c2ccc(OC(F)(F)F)cc2)C(F)(F)Cl)cc1Oc1ccccc1 ?
Data returned: 80 to 100%

Data request: Another compound: CCOc1ccc(/C(=C/CCc2cccc(Oc3ccccc3)c2)C(F)(F)F)cc1
Data returned: < 50%

Data request: # iterate: COc1ccc(C(CCCc2cccc(Oc3ccccc3)c2)C(F)(F)F)cc1 (racemic)
Data returned: < 50%

Data request: What do you have for FC(F)(F)Oc1ccc(C(=CC=Cc2cccc(Oc3ccccc3)c2)C(F)(F)Cl)cc1 ?
Data returned: < 50%

Data request: Try this compound too: Fc1cc(Br)c(C(=CC=Cc2cccc(Oc3ccccc3)c2)C(F)(F)F)c(F)c1OC(F)(F)F
Data returned: < 50%

Data request: Please do the same for OC(CCCc1cccc(Oc2ccccc2)c1)(c1ccc(OC(F)(F)F)cc1)C(F)(F)F (racemic) as well.
Data returned: 80 to 100%

Data request: Same again, this time with COc1ccc(C(=CCCc2cccc(Oc3ccccc3)c2)C(F)(F)F)cc1
Data returned: < 50%

Data request: Then this compound: Fc1ccc(CCC=C(c2ccc(OC(F)(F)F)cc2)C(F)F)cc1Oc1ccccc1
Data returned: 50 to 79%

Data request: Ok, now FC(F)(F)C(=CCCc1cccc(Oc2ccccc2)c1)c1ccc(Br)cc1
Data returned: < 50%

Data request: // same read-out, input: CCOc1ccc(C(CCCc2ccc(F)c(Cc3ccccc3)c2)C(F)(F)F)cc1 (racemic)
Data returned: 80 to 100%

Data request: Next entry: COCc1ccc(C(=CCCc2cccc(Oc3ccccc3)c2)C(F)(F)F)cc1
Data returned: < 50%

Data request: And what about the compound CCOc1ccc(C(CCCc2cccc(Oc3ccccc3)c2)C(F)(F)F)cc1F (racemic) ?
Data returned: 80 to 100%

Data request: Param item: Fc1ccc(C(CCCc2cccc(Oc3ccccc3)c2)C(F)(F)F)c(F)c1OC(F)(F)F (racemic)
Data returned: 80 to 100%

Data request: Proceed to CCOc1ccc(C(CCCc2cccc(Oc3ccccc3)c2)C(F)F)cc1 (racemic)
Data returned: 80 to 100%

Data request: # repeat for FC(F)(F)C(CCCc1cccc(Oc2ccccc2)c1)c1ccc2c(c1)OCO2 (centres unmarked)
Data returned: 80 to 100%

Data request: // next record Fc1cc(C(=CC=Cc2cccc(Oc3ccccc3)c2)C(F)(F)F)cc(F)c1OC(F)(F)F
Data returned: < 50%

Data request: Request: Fc1ccc(C=CC=C(c2ccc(OC(F)(F)F)cc2)C(F)F)cc1Oc1ccccc1
Data returned: 80 to 100%

Data request: Query CCOc1ccc(C(CCC(C#N)c2cccc(Oc3ccccc3)c2)C(F)(F)F)cc1 (racemic) next
Data returned: < 50%

Data request: What about CCOc1ccc(C(CC=Cc2c(F)c(F)c(F)c(F)c2F)C(F)(F)F)cc1 (centres unmarked) ?
Data returned: 80 to 100%

Data request: Record: CCOc1ccc(C(CCCc2cccc(Oc3ccccc3)c2)C(F)(F)Cl)cc1 (racemic)
Data returned: 80 to 100%

Data request: Let us now turn to Fc1ccc(CCCC(c2ccc(OC(F)(F)F)cc2)C(F)F)cc1Oc1ccccc1 (racemic)
Data returned: 80 to 100%

Data request: Repeat for the following compound: FC(F)(F)C(CCCc1cccc(Oc2ccccc2)c1)c1ccc(OC(F)(F)C(F)(F)Br)cc1 (racemic)
Data returned: 80 to 100%

Data request: Next entry: COCc1ccc(C(CCCc2cccc(Oc3ccccc3)c2)C(F)(F)F)cc1 (racemic)
Data returned: 80 to 100%

Data request: Input CCOc1c(F)cc(C(CCCc2ccc(F)c(Oc3ccccc3)c2)C(F)(F)F)cc1F (racemic)
Data returned: 50 to 79%

Data request: Follow-up entry: FC(F)(F)C(CCCc1cccc(Oc2ccccc2)c1)c1ccc(Cl)cc1 (racemic)
Data returned: 80 to 100%

Data request: Can you handle CCOc1ccc(C(CCCc2c(F)c(F)c(F)c(F)c2F)C(F)(F)F)cc1 (racemic) next?
Data returned: 80 to 100%

Data request: And the next one, CCOc1ccc(C(=CC=Cc2cccc(Oc3ccccc3)c2)C(F)F)cc1 ?
Data returned: < 50%

###

test system: Tetranychus urticae (spider mites - adult); test: Contact test, spider mites - adult (TUa), French bean leaf; type: in vivo; settings: 72 h, 250 ppm, 3 days, read-out: TUA grading of mortality
Result Type: mortality at 250 ppm

Data request: Name the recorded mortality at 250 ppm for FC(F)(F)Oc1ccc(C(Cl)(CCCc2cccc(Oc3ccccc3)c2)C(F)(F)F)cc1 (racemic) .
Data returned: < 50%

Data request: Param item: CC(C)(C)c1ccc(C(=CCCc2cccc(Oc3ccccc3)c2)C(F)(F)F)cc1
Data returned: < 50%

Data request: And then CCOc1ccc(C(C/C=C/c2cccc(Oc3ccccc3)c2)C(F)(F)F)cc1 (stereo not shown) , what is it?
Data returned: < 50%

Data request: Same question for CCOc1ccc(C(CC=Cc2cccc(Oc3ccccc3)c2)C(F)(F)F)cc1 (stereo not shown) please.
Data returned: < 50%

Data request: // repeat for CCOc1ccc(C(CC=Cc2ccc(F)c(Oc3ccccc3)c2)C(F)(F)F)cc1 (stereo not shown) and report
Data returned: 50 to 79%

Data request: Cool, now CCOc1ccc(C(C/C=C\c2cccc(Oc3ccccc3)c2)C(F)(F)F)cc1 (stereo not shown)
Data returned: 80 to 100%

Data request: Same thing, different compound: Fc1ccc(C(CCCc2cccc(Oc3ccccc3)c2)C(F)(F)F)cc1 (racemic)
Data returned: 80 to 100%

Data request: FC(F)(F)C(=CCCc1cccc(Oc2ccccc2)c1)c1ccc2c(c1)CCC2 ?
Data returned: < 50%

Data request: Another: FC(F)(F)Oc1ccc(C(F)(CCCc2cccc(Oc3ccccc3)c2)C(F)(F)F)cc1 (racemic)
Data returned: 80 to 100%

Data request: Please give the result for FC(F)(F)C(CCCc1cccc(Oc2ccccc2)c1)c1ccc2c(c1)CCC2 (racemic) too.
Data returned: 80 to 100%

###

system: Musca domestica (houseflies - adults); assay: Contact test, houseflies - adults (MD), Cotton wool/sugar; format: in vivo; settings: 24 h, 500 ppm, 1 day, read-out: MD grading of mortality
So I've got a bunch of compounds here, and I need their mortality at 500 ppm values.

Data request: I'd like to know its mortality at 500 ppm. The compound in question is Fc1ccc(C=CC=C(c2ccc(OC(F)(F)F)cc2)C(F)F)cc1Oc1ccccc1
Data returned: < 50%

Data request: Quick one: CCOc1ccc(C(CC=Cc2c(F)c(F)c(F)c(F)c2F)C(F)(F)F)cc1 (stereo not drawn)
Data returned: < 50%

Data request: Do the same for COCc1ccc(C(=CCCc2cccc(Oc3ccccc3)c2)C(F)(F)F)cc1 please
Data returned: < 50%

Data request: What about this compound? CCOc1ccc(C(CCCc2cccc(Oc3ccccc3)c2)C(F)(F)F)cc1F (racemic)
Data returned: 80 to 100%

Data request: Same read-out for FC(F)(F)C(CCCc1cccc(Oc2ccccc2)c1)c1ccc2c(c1)OCO2 (stereo not drawn) ?
Data returned: 80 to 100%

Data request: Please give the result for COc1ccc(C(=CCCc2cccc(Oc3ccccc3)c2)C(F)(F)F)cc1 too.
Data returned: < 50%

Data request: How about this compound: CCOc1c(F)cc(C(=CC=Cc2ccc(F)c(Oc3ccccc3)c2)C(F)(F)F)cc1F
Data returned: < 50%

Data request: Try the compound CCOc1ccc(C(CCCc2cccc(Oc3ccccc3)n2)C(F)(F)F)cc1 (stereo not drawn)
Data returned: 80 to 100%

Data request: Follow-up entry: Fc1cc(C(CCCc2cccc(Oc3ccccc3)c2)C(F)(F)F)cc(F)c1OC(F)(F)F (racemic)
Data returned: < 50%

Data request: Same read-out for Fc1cc(Br)c(C(=CC=Cc2cccc(Oc3ccccc3)c2)C(F)(F)F)c(F)c1OC(F)(F)F ?
Data returned: < 50%

Data request: Try this compound too: CCOc1ccc(C(CCC(C#N)c2cccc(Oc3ccccc3)c2)C(F)(F)F)cc1 (racemic)
Data returned: 80 to 100%

Data request: Try this compound next: CCOc1ccc(/C(=C\C=Cc2ccc(F)c(Oc3ccccc3)c2)C(F)(F)F)cc1
Data returned: 80 to 100%

Data request: # iterate: CCOc1ccc(C(CCCc2cccc(Oc3ccccc3)c2)C(F)(F)F)cc1 (racemic)
Data returned: 80 to 100%

Data request: What about CCOc1ccc(/C(=C\CCc2cccc(Oc3ccccc3)c2)C(F)(F)F)cc1 ?
Data returned: 80 to 100%

Data request: Now the same for CCOc1c(F)cc(C(=CCCc2cccc(Oc3ccccc3)c2)C(F)(F)F)cc1F
Data returned: 80 to 100%

Data request: Record: CCOc1ccc(/C(=C/CCc2cccc(Oc3ccccc3)c2)C(F)(F)F)cc1
Data returned: < 50%

Data request: Also CCOc1ccc(C(CCC(C)c2cccc(Oc3ccccc3)c2)C(F)(F)F)cc1 (racemic) , if possible.
Data returned: 80 to 100%

Data request: Another compound to check: CCOc1ccc(C(CCCc2ccc(F)c(Cc3ccccc3)c2)C(F)(F)F)cc1 (racemic)
Data returned: 80 to 100%

Data request: And what about the compound Fc1ccc(C=CC=C(c2ccc(OC(F)(F)F)cc2)C(F)(F)F)cc1Cc1ccccc1 ?
Data returned: < 50%

Data request: Quick one: COCc1ccc(C(CCCc2cccc(Oc3ccccc3)c2)C(F)(F)F)cc1 (racemic)
Data returned: 80 to 100%

Data request: Next record, please: CCOc1ccc(C(=CCCc2cccc(Oc3ccccc3)c2)C(F)(F)F)cc1
Data returned: 80 to 100%

Data request: And the next one, FC(F)C(F)(F)Oc1ccc(C(CCCc2cccc(Oc3ccccc3)c2)C(F)(F)F)cc1 (racemic) ?
Data returned: 80 to 100%

Data request: Could you do the same for FC(F)(F)C(=CCCc1cccc(Oc2ccccc2)c1)c1ccc2c(c1)OCO2 , please?
Data returned: 80 to 100%

Data request: Another compound to look at: CCOc1ccc(C(=CC=Cc2cccc(Oc3ccccc3)c2)C(F)F)cc1
Data returned: < 50%

Data request: For Fc1ccc(CCCC(c2ccc(OC(F)(F)F)cc2)C(F)F)cc1Oc1ccccc1 (racemic) then?
Data returned: 80 to 100%

Data request: Now the same for Fc1ccc(C=CC=C(c2ccc(OC(F)(F)F)cc2)C(F)(F)Cl)cc1Oc1ccccc1
Data returned: < 50%

Data request: Likewise for CC1Oc2ccc(C(CCCc3cccc(Oc4ccccc4)c3)C(F)(F)F)cc2O1 (stereo not drawn) ?
Data returned: 80 to 100%

Data request: Also need CCOc1ccc(C(=CC=Cc2ccc(F)c(Cc3ccccc3)c2)C(F)(F)F)cc1 , thanks.
Data returned: < 50%

Data request: Here is the next compound: FC(F)(F)C(=CCCc1cccc(Oc2ccccc2)c1)c1ccc(Br)cc1
Data returned: < 50%

Data request: Would you kindly repeat that for CCOc1c(F)cc(C(CCCc2cccc(Oc3ccccc3)c2)C(F)(F)F)cc1F (racemic) ?
Data returned: 80 to 100%

Data request: # repeat for CCOc1ccc(C(CC=Cc2cccc(Oc3ccccc3)n2)C(F)(F)F)cc1 (stereo not drawn)
Data returned: 80 to 100%

Data request: Same question, FC(F)(F)C(CCCc1cccc(Oc2ccccc2)c1)c1ccc(Cl)cc1 (racemic) this time
Data returned: 50 to 79%

Data request: Then this compound: FC(F)(F)C(CCCc1cccc(Oc2ccccc2)c1)c1ccc(OC(F)(F)C(F)(F)Br)cc1 (racemic)
Data returned: < 50%
